# Tested on: SF-295 CNS
# assay_notes: NCI tumour cell line growth inhibition, 48 h
As shown below, each of these compounds has a reported GI50 value.

{"columns": ["compound", "measured_on", "GI50"],
 "data": [
  ["COc1cc(-c2n/c(=C\\c3c(O)[nH]c4ccccc34)cc3c2=Nc2ccccc2-3)cc(OC)c1OC", "SF-295 CNS", "0.666 µM"],
  ["Cc1ccccc1C(C(=O)NC1CCCCC1)N(C(=O)Cn1ccnc1C)c1cccc(F)c1 (configuration not stated)", "SF-295 CNS", "28.8 µM"],
  ["C=C1C(=O)O[C@H]2C[C@@H]1CCC1(C)OC1CC/C(C)=C/CC[C@H]2C (some centres not stated)", "SF-295 CNS", "12.3 µM"],
  ["Nc1ccc(-n2c(=O)oc3ccc(Cl)cc3c2=O)c(Cl)c1", "SF-295 CNS", "1.07 µM"],
  ["Cc1cc(C)c2c(N)c3cccc(C)c3nc2n1", "SF-295 CNS", "1.44 µM"],
  ["C=C(C)[C@@H]1CC[C@]2(C(=O)NCCNCCNCCN)CC[C@]3(C)[C@H](CC[C@@H]4[C@@]5(C)CCC(=O)C(C)(C)[C@@H]5CC[C@]43C)[C@@H]12", "SF-295 CNS", "9.42 µM"],
  ["Oc1cc(Cl)ccc1Cc1ccc(Cl)cc1O", "SF-295 CNS", "6.34 µM"]
]}
